System: MCF7 breast
Test: NCI-60 one-dose screen, 48 h (100 = growth as untreated, 0 = no growth, -100 = all killed)
Details: 10 µM unless noted
Procedure: Growth inhibition of the MCF7 human tumor cell line is measured as a screen for anti-cancer activity. Cells are grown in 96 well plates and exposed to the test compound for 48 hours. Compounds are tested at a single concentration, which is 10^-5 M for most compounds. The reported endpoint is percent growth (GI% or GIPRCNT), where numbers from 0 - 100% represent growth inhibition, and numbers from -100% - 0 represent cell death. For example, a value of 40 represents 60% growth inhibition. […]
This is part of a sample that, as a whole, favours compounds with a hit. Of some 83,000 tested, about 20% had one in any assay. Calls of active or inactive are those of the source. How the source made its calls: active means growth percent below 10; inactive means the rest.
Parameter: growth

[ask] For COc1ccc(C2CC(c3ccc4c(c3)OCO4)=Nc3c(N)ncnc3N2)cc1 (centres undefined) , what is its reported growth?
[reply] 90.6% (inactive)

[ask] For COCCCOc1cc(C[C@@H](C[C@H](N)[C@@H](O)C[C@H](C(=O)NCC(C)(C)C(N)=O)C(C)C)C(C)C)ccc1OC , what is its reported growth?
[reply] 95.1% (inactive)

[ask] For O=C1/C=C/[C@@H](O)[C@@H]2C[C@@H](O)C[C@H]2/C=C/CCC[C@H](CCOCc2ccccc2)O1 , what is its reported growth?
[reply] -10.3% (active)

[ask] For O=C(/C=C/C12c3ccccc3C(c3ccccc31)C1C(=O)NC(=O)C12)c1ccc(F)cc1 (centres undefined) , what is its reported growth?
[reply] 11.8% (inactive)

[ask] For CCN1C(=O)N(CC)C2C1NN=C1SCC(=O)N12 (centres undefined) , what is its reported growth?
[reply] 18% (inactive)

[ask] For CCOC(=O)c1c(C)nc2ccccc2c1/C=C/c1ccc(OC)cc1 , what is its reported growth?
[reply] 63.9% (inactive)

[ask] For CCCCCCCCCCCCCCCCCCOc1ccccc1CC(=O)OCC[N+]1(C)CCOCC1 , what is its reported growth?
[reply] 79.8% (inactive)

[ask] For Cc1ncc(C(=O)Nc2ccc(CN3CCN(C)CC3)c(C(F)(F)F)c2)cc1C#Cc1cnc(N)c2ccncc12 , what is its reported growth?
[reply] -72% (active)

[ask] For COc1cc2cc(Oc3ccc(NC(=O)Nc4ccccc4)cc3)c(C)nc2cc1OCCN1CCCCC1 , what is its reported growth?
[reply] 31.9% (inactive)

[ask] For N#Cc1nc2c(S(=O)(=O)c3ccccc3)c(N)n(Cc3cccnc3)c2nc1C#N , what is its reported growth?
[reply] 91.3% (inactive)

The origin of these recorded values is PubChem BioAssay (NCI).
